Biological target: T1, FcγRIIA protein (human, UniProt P12318 36-217, biotinylated (SureLINK Biotin Kit) in the ELISA of Example 1)
T1 construct: Soluble/recombinant antigen used in ELISA; also called bt-FcγRIIA; recombinant FcγRIIA protein
T1 sequence: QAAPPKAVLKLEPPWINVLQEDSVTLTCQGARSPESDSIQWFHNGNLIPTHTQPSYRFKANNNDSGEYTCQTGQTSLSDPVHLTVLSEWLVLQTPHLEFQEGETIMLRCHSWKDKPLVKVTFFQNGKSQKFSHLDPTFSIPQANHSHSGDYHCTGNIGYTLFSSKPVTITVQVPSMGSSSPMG
Test: ELISA; bt-FcγRIIA on streptavidin plate, purified FN3 domain titrated
Description: For primary ELISA, Maxisorp 96-well plates were loaded with 100 μL per well of streptavidin (Promega; 5 μg/mL in PBS) and then held at 4° C. overnight. The next day, the streptavidin-coated plates were washed 3×TBST and then blocked with 250 μL Starting Block T20 (Pierce-cat#37543). […] After a final 1 h incubation at room temperature, the plates were washed 3× with 1×TBST, loaded with 100 μL per well of the chemiluminescence substrate POD (Roche), and read in a Perkin Elmer Envision plate reader. […]
Please respond with yes (1) when measured EC50 is strictly beneath 10 nM, and with no (0) in all other cases.

Known results for binders:
BINDER	CLASS NAME
R2BS56 (designed binder, expressed in E. coli BL21 and purified on nickel sepharose; also called R2BS56 FN3 domain; R2B56) LPAPKNLVVSRVTEDSARLSWTAPDAAFDSFSIAYWEYRKGGEAIVLTVPGSERSYDLTGLKPGTEYFVLIYGVKGGWQSKPLSAIFTT	yes (1)
R2BS12 (designed binder, expressed in E. coli BL21 and purified on nickel sepharose; also called R2BS12 FN3 domain; R2B12) LPAPKNLVVSRVTEDSARLSWTAPDAAFDSFLIAYAEYWEGGEAVVLTVPGSERSYDLTGLKPGTEYFVQINGVKGGFWSIPLSAIFTT	yes (1)
R2BS39 (designed binder, expressed in E. coli BL21 and purified on nickel sepharose; also called R2BS39 FN3 domain) LPAPKNLVVSRVTEDSARLSWTAPDAAFDSFLIQYQESEKVGEAIVLTVPGSERSYDLTGLKPGTEYTVSIYGVSHGPWYNYGEWRSNPLSAIFTT	no (0)
R2BS9 (designed binder, expressed in E. coli BL21 and purified on nickel sepharose; also called R2BS9 FN3 domain) LPAPKNLVVSRVTEDSARLSWTAPDAAFDSFWIYYLEYWRGGEAIVLTVPGSERSYDLTGLKPGTEYFVQIHGVKGGQYSYPLSAIFTT	yes (1)
R2BS29 (designed binder, expressed in E. coli BL21 and purified on nickel sepharose; also called R2BS29 FN3 domain; R2B29) LPAPKNLVVSRVTEDSARLSWTAPDAAFDSFPIYYWEYRVGGEAIVLTVPGSERSYDLTGLKPGTEYFVYINGVKGGEESRPLSAIFTT	yes (1)
R2BS6 (designed binder, expressed in E. coli BL21 and purified on nickel sepharose; also called R2BS6 FN3 domain) LPAPKNLVVSRVTEDSARLSWTAPDAAFDSFLIQYQESEKVGEAIVLTVPGSERSYDLTGLKPGTEYTVSIYGVQYAAWYLPRHHEASNPLSAIFTT	no (0)

Turning now to a further binder:
### Prompt EC50 strictly < 10 nM for this binder? R2BS26 (designed binder, expressed in E. coli BL21 and purified on nickel sepharose; also called R2BS26 FN3 domain) LPAPKNLVVSRVTEDSARLSWTAPDAAFDSFPIAYIEYWTGGEAIVLTVPGSERSYDLTGLKPGTEYFVWIHGVKGGAWSSPLSAIFTT
### Response yes (1)
